# credit: ChEMBL document CHEMBL1687766

- Tested on: Staphylococcus aureus
- Method description: Antimicrobial activity against vancomycin-intermediate Staphylococcus aureus after 24 hrs by microdilution method
- Assay type: functional
Exercise: for every item that follows, state its recorded MBC50.
Just so you know, I need the unit written after the number.

Inquiry: Request: MBC50, test system Staphylococcus aureus, entry CC(=O)NC[C@H]1CN(c2ccc(N3CCOCC3)c(F)c2)C(=O)O1 [LINEZOLID]
Reply text: 8 µg/mL

Inquiry: State its MBC50 on Staphylococcus aureus: CCCCCCCCCC(=O)N[C@@H](Cc1c[nH]c2ccccc12)C(=O)N[C@H](CC(N)=O)C(=O)N[C@@H](CC(=O)O)C(=O)N[C@@H]1C(=O)NCC(=O)N[C@@H](CCCN)C(=O)N[C@@H](CC(=O)O)C(=O)N[C@H](C)C(=O)N[C@@H](CC(=O)O)C(=O)NCC(=O)N[C@H](CO)C(=O)N[C@@H]([C@H](C)CC(=O)O)C(=O)N[C@@H](CC(=O)c2ccccc2N)C(=O)O[C@@H]1C
Reply text: 1 µg/mL

Inquiry: Staphylococcus aureus / MBC50 / CN[C@H](CC(C)C)C(=O)N[C@H]1C(=O)N[C@@H](CC(N)=O)C(=O)N[C@H]2C(=O)N[C@H]3C(=O)N[C@H](C(=O)N[C@H](C(=O)O)c4cc(O)cc(O)c4-c4cc3ccc4O)[C@H](O)c3ccc(c(Cl)c3)Oc3cc2cc(c3O[C@@H]2O[C@H](CO)[C@@H](O)[C@H](O)[C@H]2O[C@H]2C[C@](C)(N)[C@H](O)[C@H](C)O2)Oc2ccc(cc2Cl)[C@H]1O [VANCOMYCIN] : value?
Reply text: 4 µg/mL

Inquiry: Please provide the recorded MBC50 for CN[C@H](CC(C)C)C(=O)N[C@H]1C(=O)N[C@@H](CC(N)=O)C(=O)N[C@H]2C(=O)N[C@H]3C(=O)N[C@H](C(=O)N[C@H](C(=O)NCCCO/N=C(\C(=O)N[C@@H]4C(=O)N5C(C(=O)[O-])=C(C[n+]6ccccc6)CS[C@H]45)c4nc(N)sc4Cl)c4cc(O)cc(O)c4-c4cc3ccc4O)[C@H](O)c3ccc(c(Cl)c3)Oc3cc2cc(c3O[C@@H]2O[C@H](CO)[C@@H](O)[C@H](O)[C@H]2O[C@H]2C[C@](C)(N)[C@H](O)[C@H](C)O2)Oc2ccc(cc2Cl)[C@H]1O , tested on Staphylococcus aureus.
Reply text: 0.06 µg/mL

====

- Tested on: Staphylococcus aureus
- Method description: Antimicrobial activity against vancomycin-intermediate Staphylococcus aureus isolate MU50 assessed as bacterial count at 32 times MIC after 24 hrs by colony counting method
- Assay type: functional
Measured property: log10CFU/ml
API note: the answer field is a bare number with no unit suffix.

Inquiry: // fetch Staphylococcus aureus log10CFU/ml for CC(=O)NC[C@H]1CN(c2ccc(N3CCOCC3)c(F)c2)C(=O)O1 [LINEZOLID]
Reply text: 4.8

Inquiry: API: value(readout=log10CFU/ml, system=Staphylococcus aureus) for record CN[C@H](CC(C)C)C(=O)N[C@H]1C(=O)N[C@@H](CC(N)=O)C(=O)N[C@H]2C(=O)N[C@H]3C(=O)N[C@H](C(=O)N[C@H](C(=O)O)c4cc(O)cc(O)c4-c4cc3ccc4O)[C@H](O)c3ccc(c(Cl)c3)Oc3cc2cc(c3O[C@@H]2O[C@H](CO)[C@@H](O)[C@H](O)[C@H]2O[C@H]2C[C@](C)(N)[C@H](O)[C@H](C)O2)Oc2ccc(cc2Cl)[C@H]1O [VANCOMYCIN]
Reply text: 4.41

Inquiry: Form field - read-out: log10CFU/ml; system: Staphylococcus aureus; submitted item: CCCCCCCCCC(=O)N[C@@H](Cc1c[nH]c2ccccc12)C(=O)N[C@H](CC(N)=O)C(=O)N[C@@H](CC(=O)O)C(=O)N[C@@H]1C(=O)NCC(=O)N[C@@H](CCCN)C(=O)N[C@@H](CC(=O)O)C(=O)N[C@H](C)C(=O)N[C@@H](CC(=O)O)C(=O)NCC(=O)N[C@H](CO)C(=O)N[C@@H]([C@H](C)CC(=O)O)C(=O)N[C@@H](CC(=O)c2ccccc2N)C(=O)O[C@@H]1C
Reply text: 5.12

Inquiry: Can you look up log10CFU/ml on Staphylococcus aureus for CN[C@H](CC(C)C)C(=O)N[C@H]1C(=O)N[C@@H](CC(N)=O)C(=O)N[C@H]2C(=O)N[C@H]3C(=O)N[C@H](C(=O)N[C@H](C(=O)NCCCO/N=C(\C(=O)N[C@@H]4C(=O)N5C(C(=O)[O-])=C(C[n+]6ccccc6)CS[C@H]45)c4nc(N)sc4Cl)c4cc(O)cc(O)c4-c4cc3ccc4O)[C@H](O)c3ccc(c(Cl)c3)Oc3cc2cc(c3O[C@@H]2O[C@H](CO)[C@@H](O)[C@H](O)[C@H]2O[C@H]2C[C@](C)(N)[C@H](O)[C@H](C)O2)Oc2ccc(cc2Cl)[C@H]1O ?
Reply text: 4.92
